Tested on: H3255
TEST: relative viability (nuclei count vs DMSO), 5 days (fraction); higher = more cells survive
TEST_CONDITIONS: first compound 0.08 µM
Hi there, I'd appreciate the recorded relative viability for every entry that follows.
One number for each entry.

*Q* Query relative viability on H3255 for CCCCCCCCCCCC1=C(O)C(=O)C=C(O)C1=O [Embelin] + Nc1nc2[nH]cc(CCc3ccc(C(=O)N[C@@H](CCC(=O)O)C(=O)O)cc3)c2c(=O)[nH]1 [Pemetrexed] (partner 0.2 µM)
*A* 0.566

*Q* Item: CCCCCCCCCCCC1=C(O)C(=O)C=C(O)C1=O [Embelin] + C[C@@H](Oc1cc(-c2cnn(C3CCNCC3)c2)cnc1N)c1c(Cl)ccc(F)c1Cl [Crizotinib] (partner 1 µM) Test system: H3255 Read-out: relative viability Value: ?
*A* 0.86

*Q* Entry CCCCCCCCCCCC1=C(O)C(=O)C=C(O)C1=O [Embelin] + COc1cc2c(Oc3ccc(NC(=O)C4(C(=O)Nc5ccc(F)cc5)CC4)cc3F)ccnc2cc1OCCCN1CCOCC1 [Foretinib] (partner 0.25 µM) , system H3255: what relative viability was measured?
*A* 0.831

More entries:
*Q* Query the reported relative viability for H3255; item: CCCCCCCCCCCC1=C(O)C(=O)C=C(O)C1=O [Embelin] + CC1(C)CCC(c2ccc(Cl)cc2)=C(CN2CCN(c3ccc(C(=O)NS(=O)(=O)c4ccc(N[C@H](CCN5CCOCC5)CSc5ccccc5)c(S(=O)(=O)C(F)(F)F)c4)cc3)CC2)C1 [Navitoclax] (partner 0.5 µM)
*A* 0.516

---

Would you kindly list relative viability for each of these compounds?
Test system: NCI-H522
TEST: relative viability (nuclei count vs DMSO), 5 days (fraction); higher = more cells survive
TEST_CONDITIONS: first compound 8 µM
Answers are plain numbers.

Some solved cases for reference:
*Q* Item under review: CCCCCCCCCCCC1=C(O)C(=O)C=C(O)C1=O [Embelin] + CC(=O)c1c(C)c2cnc(Nc3ccc(N4CCNCC4)cn3)nc2n(C2CCCC2)c1=O [Palbociclib] (partner 0.5 µM) . Reported relative viability?
*A* 0.983

*Q* // query relative viability value for entry CCCCCCCCCCCC1=C(O)C(=O)C=C(O)C1=O [Embelin] + Cc1cc(Nc2cc(N3CCN(C)CC3)nc(Sc3ccc(NC(=O)C4CC4)cc3)n2)n[nH]1 [Tozasertib] (partner 0.1 µM)
*A* 0.532

Please go through the list and note relative viability for each compound.
1. CCCCCCCCCCCC1=C(O)C(=O)C=C(O)C1=O [Embelin] + O=C(CCCCCCC(=O)Nc1ccccc1)NO [Vorinostat] (partner 1 µM)
2. CCCCCCCCCCCC1=C(O)C(=O)C=C(O)C1=O [Embelin] + N=C(N)NC(=N)NCCc1ccccc1 [Phenformin] (partner 250 µM)

*A*
1: 0.856; 2: 0.621

---

Tested on: RERF-LC-KJ
TEST: relative viability (nuclei count vs DMSO), 5 days (fraction); higher = more cells survive
TEST_CONDITIONS: first compound 8 µM
MEASURED_PARAMETER: relative viability
One number for each entry.

*Q* // relative viability lookup, key: CCCCCCCCCCCC1=C(O)C(=O)C=C(O)C1=O [Embelin] + NC(=O)Nc1cc(-c2cccc(F)c2)sc1C(=O)N[C@H]1CCCNC1 [AZD7762] (partner 0.2 µM)
*A* 1

*Q* // returns reported relative viability for input CCCCCCCCCCCC1=C(O)C(=O)C=C(O)C1=O [Embelin] + Cc1nc(NC(=O)N2CCC[C@H]2C(N)=O)sc1-c1ccnc(C(C)(C)C(F)(F)F)c1 [Alpelisib] (partner 2 µM)
*A* 0.865

More entries:
*Q* # lookup: relative viability of CCCCCCCCCCCC1=C(O)C(=O)C=C(O)C1=O [Embelin] + CC(=O)Nc1cccc(-n2c(=O)n(C3CC3)c(=O)c3c(Nc4ccc(I)cc4F)n(C)c(=O)c(C)c32)c1 [Trametinib] (partner 0.02 µM)
*A* 0.853

---

Test system: EMC-BAC-2
TEST: relative viability (nuclei count vs DMSO), 5 days (fraction); higher = more cells survive
TEST_CONDITIONS: first compound 0.04 µM
Field: relative viability. Provide a value for each of the molecules that follow.

*Q* Which measured relative viability value corresponds to C[C@@H]1CN(CC(=O)Nc2ccc3c(c2)Cc2cccc(-c4cc(=O)cc(N5CCOCC5)o4)c2S3)C[C@H](C)O1 + O=C(c1cc(Cc2n[nH]c(=O)c3ccccc23)ccc1F)N1CCN(C(=O)C2CC2)CC1 [Olaparib] (partner 8 µM) ?
*A* 0.512

# ---- query molecule ----
*Q* Can you share its relative viability? I mean this molecule: C[C@@H]1CN(CC(=O)Nc2ccc3c(c2)Cc2cccc(-c4cc(=O)cc(N5CCOCC5)o4)c2S3)C[C@H](C)O1 + COc1cc2c(Oc3ccc(NC(=O)C4(C(=O)Nc5ccc(F)cc5)CC4)cc3F)ccnc2cc1OCCCN1CCOCC1 [Foretinib] (partner 0.25 µM)
*A* 1.08

---

System: NCI-H2228
TEST: relative viability (nuclei count vs DMSO), 5 days (fraction); higher = more cells survive
TEST_CONDITIONS: first compound 0.1265 µM
MEASURED_PARAMETER: relative viability
Give bare numbers.

*Q* Quick check: relative viability on NCI-H2228, item COc1cc(N2CCC(C(N)=O)CC2)ccc1Nc1nc(N)c(Cl)c(Nc2ccccc2S(=O)(=O)C(C)C)n1 [HG-5-88-01] + N=C(N)NC(=N)NCCc1ccccc1 [Phenformin] (partner 250 µM) ?
*A* 0.124

For every record below, what is its relative viability?
1. C[C@@H]1CN(CC(=O)Nc2ccc3c(c2)Cc2cccc(-c4cc(=O)cc(N5CCOCC5)o4)c2S3)C[C@H](C)O1 + CC1(C)CCC(c2ccc(Cl)cc2)=C(CN2CCN(c3ccc(C(=O)NS(=O)(=O)c4ccc(N[C@H](CCN5CCOCC5)CSc5ccccc5)c(S(=O)(=O)C(F)(F)F)c4)cc3)CC2)C1 [Navitoclax] (partner 0.5 µM)
2. Clc1ccc(Nc2nnc(Cc3ccncc3)c3ccccc23)cc1 [Vatalanib] + CS(=O)(=O)CCNCc1ccc(-c2ccc3ncnc(Nc4ccc(OCc5cccc(F)c5)c(Cl)c4)c3c2)o1 [Lapatinib] (partner 2 µM)
3. C[C@@H]1CN(CC(=O)Nc2ccc3c(c2)Cc2cccc(-c4cc(=O)cc(N5CCOCC5)o4)c2S3)C[C@H](C)O1 + C[C@]1(O)C[C@@H](c2nc(-c3ccc4ccc(-c5ccccc5)nc4c3)c3c(N)nccn32)C1 [Linsitinib] (partner 1 µM)
4. Clc1ccc(Nc2nnc(Cc3ccncc3)c3ccccc23)cc1 [Vatalanib] + CC1(C)CCC(c2ccc(Cl)cc2)=C(CN2CCN(c3ccc(C(=O)NS(=O)(=O)c4ccc(N[C@H](CCN5CCOCC5)CSc5ccccc5)c(S(=O)(=O)C(F)(F)F)c4)cc3)CC2)C1 [Navitoclax] (partner 0.5 µM)

*A*
1: 1.11; 2: 1.14; 3: 0.731; 4: 0.92

---

Test system: NCI-H1944
TEST: relative viability (nuclei count vs DMSO), 5 days (fraction); higher = more cells survive
TEST_CONDITIONS: first compound 0.08 µM
MEASURED_PARAMETER: relative viability
One number for each entry.

Could you report relative viability for every entry in the following list?
1. CCCCCCCCCCCC1=C(O)C(=O)C=C(O)C1=O [Embelin] + Nc1nc2[nH]cc(CCc3ccc(C(=O)N[C@@H](CCC(=O)O)C(=O)O)cc3)c2c(=O)[nH]1 [Pemetrexed] (partner 0.2 µM)
2. CCCCCCCCCCCC1=C(O)C(=O)C=C(O)C1=O [Embelin] + Cc1cc(Nc2cc(N3CCN(C)CC3)nc(Sc3ccc(NC(=O)C4CC4)cc3)n2)n[nH]1 [Tozasertib] (partner 0.1 µM)
3. CCCCCCCCCCCC1=C(O)C(=O)C=C(O)C1=O [Embelin] + C[C@@H](Oc1cc(-c2cnn(C3CCNCC3)c2)cnc1N)c1c(Cl)ccc(F)c1Cl [Crizotinib] (partner 1 µM)
4. CCCCCCCCCCCC1=C(O)C(=O)C=C(O)C1=O [Embelin] + CC(=O)c1c(C)c2cnc(Nc3ccc(N4CCNCC4)cn3)nc2n(C2CCCC2)c1=O [Palbociclib] (partner 0.5 µM)
5. CCCCCCCCCCCC1=C(O)C(=O)C=C(O)C1=O [Embelin] + CC1(C)CCC(c2ccc(Cl)cc2)=C(CN2CCN(c3ccc(C(=O)NS(=O)(=O)c4ccc(N[C@H](CCN5CCOCC5)CSc5ccccc5)c(S(=O)(=O)C(F)(F)F)c4)cc3)CC2)C1 [Navitoclax] (partner 0.5 µM)

*A*
[0.545, 0.262, 1.19, 0.346, 1.01]

---

Hi there, I'd appreciate the recorded relative viability for every entry that follows.
Test system: LOU-NH91
TEST: relative viability (nuclei count vs DMSO), 5 days (fraction); higher = more cells survive
TEST_CONDITIONS: first compound 0.1265 µM
Numbers only.

*Q* Provide the documented relative viability with LOU-NH91 as the system for COc1cc(N2CCC(C(N)=O)CC2)ccc1Nc1nc(N)c(Cl)c(Nc2ccccc2S(=O)(=O)C(C)C)n1 [HG-5-88-01] + C[C@]1(O)C[C@@H](c2nc(-c3ccc4ccc(-c5ccccc5)nc4c3)c3c(N)nccn32)C1 [Linsitinib] (partner 1 µM)
*A* 0.916

*Q* Identify the measured relative viability of C[C@@H]1CN(CC(=O)Nc2ccc3c(c2)Cc2cccc(-c4cc(=O)cc(N5CCOCC5)o4)c2S3)C[C@H](C)O1 + CC(C)C[C@H](NC(=O)[C@H](Cc1ccccc1)NC(=O)c1cnccn1)B(O)O [Bortezomib] (partner 0.002 µM) for LOU-NH91.
*A* 0.446

*Q* GET /values?readout=relative viability&system=LOU-NH91&item= C[C@@H]1CN(CC(=O)Nc2ccc3c(c2)Cc2cccc(-c4cc(=O)cc(N5CCOCC5)o4)c2S3)C[C@H](C)O1 + C[C@@H](Oc1cc(-c2cnn(C3CCNCC3)c2)cnc1N)c1c(Cl)ccc(F)c1Cl [Crizotinib] (partner 1 µM)
*A* 0.752

// moving on: another record for relative viability
*Q* Param readout = relative viability; param system = LOU-NH91; param query = Clc1ccc(Nc2nnc(Cc3ccncc3)c3ccccc23)cc1 [Vatalanib] + C[C@@H](Oc1cc(-c2cnn(C3CCNCC3)c2)cnc1N)c1c(Cl)ccc(F)c1Cl [Crizotinib] (partner 1 µM) ; response: value
*A* 0.708
